Where these numbers come from: a melting point compilation (Tetko et al.; mined from patent text by program, amines drawn as free bases though some values may be those of a salt)

So I've got a bunch of molecules here, and I need their melting point values.

Using the record for Clc1cccc(NC2=Nc3ccc(Cl)cc3CS2)c1 , report its melting point.
174 to 175 °C

Try this molecule too: Nc1nnc(-c2ccc3ncn(-c4cccc(C(F)(F)F)c4)c3c2)o1
244 to 245 °C

Try this molecule too: O=C(O)CCc1oc(Sc2ccccn2)nc1-c1ccc(Cl)cc1
172 to 173 °C

Try this molecule too: OCc1ccc(Cn2c(CC3CCN(Cc4ccccc4)CC3)nc3ccccc32)o1
144 °C

Try this molecule too: Clc1cnnc(Cl)c1Cl
61 °C

Try this molecule too: COc1cc(C(=O)O)cc(OC)c1OC(C)=O
181 to 183 °C

Try this molecule too: CCCCc1ncc(/C=C(\Cc2cccs2)C(=O)O)n1Cc1cccc(Cl)c1Cl
184 to 185 °C

Try this molecule too: COC(=O)CC(NC(=O)c1cccc(OC)c1)c1ccc(OC)c(OC)c1 (centres undefined)
124 to 125 °C

Try this molecule too: Cc1ccc2c(=O)[nH]sc2n1
187 to 190 °C

Try this molecule too: CC(C)c1c(C(=O)c2cccc(C=CC#N)c2)[nH]c(=O)[nH]c1=O
210 to 211 °C

Try this molecule too: Nc1nc(N)c(CCCc2cccc3ccccc23)c(N)n1
181 to 183 °C

Try this molecule too: CCN1CCNC(=O)C1c1ccc(N)cc1 (centres undefined)
153 to 154 °C

Try this molecule too: CC(C)NCC(O)COc1ccc2cn[nH]c(=O)c2c1 (centres undefined)
232 to 235 °C

Try this molecule too: Cc1nc(C(O)(Cn2cncn2)c2ccc(Cl)cc2)sc1C (centres undefined)
174 °C

Try this molecule too: CN(C)c1nc(C(F)(F)F)cc(=O)n1-c1cc(F)c(C#N)cc1F
147 °C

Try this molecule too: O=C1N=C2CCCCN2C12CCNCC2
220 °C

Try this molecule too: Nc1nc2cc(F)ccc2s1
167 °C

Try this molecule too: NCC1(O)CCN(CC2OCCO2)CC1
137 °C

Try this molecule too: CCCN(C)S(=O)(=O)c1nnc(NC(=O)N(C)C)s1
152 to 153 °C

Try this molecule too: CC(C)(C)OC(=O)Nc1cc(N2CCOCC2)c(I)cc1[N+](=O)[O-]
43 to 44 °C

Try this molecule too: CCc1ccccc1NC=C1C(=O)N(c2ccc(N(S(C)(=O)=O)S(C)(=O)=O)cc2)N=C1C
268 °C

Try this molecule too: Cn1c(=O)n(CC2(C)Cn3cc([N+](=O)[O-])nc3O2)c2ccccc21 (centres undefined)
203 to 204 °C

Try this molecule too: O=[N+]([O-])c1ccc(N(CCBr)S(=O)(=O)c2ccccc2)cc1
168 °C

Try this molecule too: CCCCCCCCCc1ccc2c(c1)C1(O)C(=O)c3ccccc3C1(O)O2 (centres undefined)
108 to 110 °C
